protocol_text: Pharmacokinetic study in Sprague-Dawley rats
Assay type: in vivo
assay_context: male, Sprague-Dawley, plasma, iv; rat, 5 mg/kg i.v.; read-out: Cmax
reported_endpoint: Cmax (ng/mL)
Give the value, in units of ng/mL, as a plain number.

[
  {
    "molecule": "Cc1ncc(C(=O)N[C@@H](COC(F)F)C(=O)N[C@@H](COC(F)F)C(=O)N[C@@H](Cc2ccccc2)C(=O)[C@@]2(C)CO2)s1",
    "Cmax / ng/mL": 392
  }
]

State, in one line, measured Cmax of COC[C@H](NC(=O)c1cnc(C)s1)C(=O)N[C@@H](COC)C(=O)N[C@@H](Cc1ccccc1)C(=O)[C@@]1(C)CO1 [ONX-0912, reference compound] 1090
